Molecular target: human α7 nAChRs transiently expressed in Xenopus laevis oocytes (Homo sapiens (Human), UniProt P36544)
Sequence (P36544 23-502 limits assumed): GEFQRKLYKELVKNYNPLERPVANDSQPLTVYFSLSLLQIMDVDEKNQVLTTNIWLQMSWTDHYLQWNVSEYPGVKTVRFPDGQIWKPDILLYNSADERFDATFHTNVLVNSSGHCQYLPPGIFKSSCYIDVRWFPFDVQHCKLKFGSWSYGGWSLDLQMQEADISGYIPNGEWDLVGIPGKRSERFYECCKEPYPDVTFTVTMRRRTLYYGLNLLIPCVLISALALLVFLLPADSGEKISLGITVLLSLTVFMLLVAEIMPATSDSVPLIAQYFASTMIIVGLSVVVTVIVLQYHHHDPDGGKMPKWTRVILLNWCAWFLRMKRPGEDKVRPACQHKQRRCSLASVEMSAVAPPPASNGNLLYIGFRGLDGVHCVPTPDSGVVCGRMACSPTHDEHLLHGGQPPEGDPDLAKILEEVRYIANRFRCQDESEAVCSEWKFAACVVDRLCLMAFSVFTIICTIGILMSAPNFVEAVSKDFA
Test: Oocyte Electrophysiology Screen (two-electrode voltage-clamp, HiQScreen)
Type: cell-based
Conditions: test compound at 0.01 mM, response as percentage of that evoked by 0.2 mM ACh; hydrochloride
Method: Oocyte Electrophysiology Screen (% ACh @ 10 μM Oocyte) The Oocyte Electrophysiology Screen studies were performed under contract by HiQScreen Geneva, Switzerland. […] Currents evoked by acetylcholine or other agonist ligands were recorded using the standard two-electrode voltage-clamp configuration (TEVC). […] Data were filtered at 10 Hz, captured at 100 Hz and analyzed using proprietary data acquisition and analysis software running under Matlab (Mathworks Inc.). […]
Where a name gives a salt, the structure may show the parent alone.
Short version: % ACh @ 10 μM Oocyte at least 400 % ACh is Yes, less is No.

Before answering, review these 8 worked examples.
{"columns": ["molecule", "class"],
 "data": [
  ["c1cc2c(NC3CN4CCC3CC4)noc2cc1C1CC1 (single isomer, unassigned; enantiomer2) [Compound 6-P2, hydrochloride]", "No"],
  ["FC(F)(F)c1ccc2c(NC3CN4CCC3CC4)noc2c1 (single isomer, unassigned; enantiomer2) [Compound 8-P2, hydrochloride]", "No"],
  ["Clc1ccc2c(NC3CN4CCC3CC4)noc2c1 (single isomer, unassigned; enantiomer2) [Compound 3-P2, hydrochloride]", "No"],
  ["Clc1ccc2c(NC3CN4CCC3CC4)noc2c1 (single isomer, unassigned; enantiomer1) [Compound 3-P1, hydrochloride]", "Yes"],
  ["FC(F)(F)c1ccc2c(NC3CN4CCC3CC4)noc2c1 (single isomer, unassigned; enantiomer1) [Compound 8-P1, hydrochloride]", "No"],
  ["Clc1cccc2c(NC3CN4CCC3CC4)noc12 (single isomer, unassigned; enantiomer2) [Compound 2-P2, hydrochloride]", "No"],
  ["COc1ccc2c(NC3CN4CCC3CC4)noc2c1 (single isomer, unassigned; enantiomer2) [Compound 7-P2, hydrochloride]", "Yes"],
  ["c1cc2c(NC3CN4CCC3CC4)noc2cc1C1CC1 (single isomer, unassigned; enantiomer1) [Compound 6-P1, hydrochloride]", "No"]
]}

Threshold query (% ACh @ 10 μM Oocyte >= 400 % ACh) on COc1ccc2c(NC3CN4CCC3CC4)noc2c1 (single isomer, unassigned; enantiomer1) [Compound 7-P1, hydrochloride]
No

Entry Clc1cccc2c(NC3CN4CCC3CC4)noc12 (single isomer, unassigned; enantiomer1) [Compound 2-P1, hydrochloride] : is its % ACh @ 10 μM Oocyte no less than 400 % ACh?
Yes

Determine whether measured % ACh @ 10 μM Oocyte meets or exceeds 400 % ACh for c1ccc2c(NC3CN4CCC3CC4)noc2c1 (single isomer, unassigned; enantiomer2) [Compound 1-P2, hydrochloride]
No

Please indicate if the recorded % ACh @ 10 μM Oocyte for Clc1ccc2onc(NC3CN4CCC3CC4)c2c1 (single isomer, unassigned; enantiomer1) [Compound 4-P1, hydrochloride] meets or exceeds 400 % ACh.
No

Determine whether this molecule has % ACh @ 10 μM Oocyte no lower than 400 % ACh: Clc1ccc2onc(NC3CN4CCC3CC4)c2c1 (single isomer, unassigned; enantiomer2) [Compound 4-P2, hydrochloride]
No

Hi team, for Cc1ccc2c(NC3CN4CCC3CC4)noc2c1 (single isomer, unassigned; enantiomer1) [Compound 5-P1, hydrochloride] , is the recorded % ACh @ 10 μM Oocyte at or above 400 % ACh?
Yes

Hi team, for Cc1ccc2c(NC3CN4CCC3CC4)noc2c1 (single isomer, unassigned; enantiomer2) [Compound 5-P2, hydrochloride] , is the recorded % ACh @ 10 μM Oocyte at or above 400 % ACh?
Yes

Would you say c1ccc2c(NC3CN4CCC3CC4)noc2c1 (single isomer, unassigned; enantiomer1) [Compound 1-P1, hydrochloride] shows % ACh @ 10 μM Oocyte at minimum 400 % ACh?
Yes

---

target: human 5-HT3 serotonin receptors (Homo sapiens (Human), UniProt P46098)
Sequence (P46098 24-478): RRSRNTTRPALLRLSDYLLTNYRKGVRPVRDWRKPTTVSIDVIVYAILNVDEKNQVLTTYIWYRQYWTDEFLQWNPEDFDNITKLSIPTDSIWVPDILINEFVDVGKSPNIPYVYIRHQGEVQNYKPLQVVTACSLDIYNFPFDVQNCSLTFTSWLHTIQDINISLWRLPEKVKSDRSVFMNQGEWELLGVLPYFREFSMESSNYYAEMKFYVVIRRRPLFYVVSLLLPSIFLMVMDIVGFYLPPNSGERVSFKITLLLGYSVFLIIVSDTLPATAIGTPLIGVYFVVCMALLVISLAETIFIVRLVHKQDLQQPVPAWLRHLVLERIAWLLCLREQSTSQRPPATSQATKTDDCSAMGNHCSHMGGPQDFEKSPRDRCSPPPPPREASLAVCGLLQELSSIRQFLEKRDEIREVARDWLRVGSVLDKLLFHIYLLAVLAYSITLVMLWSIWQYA
Structures can show the parent of a compound that is named as a salt.
assay.endpoint: pKi
Numbers only, as −log10 of the molar value.

Identify measured pKi associated with Cc1c(Cl)ccc2c(N[C@H]3CN4CCC3CC4)noc12 [Compound (R)-23, hydrochloride]
6.72

---

molecular target: human α7 nAChR (Homo sapiens (Human), UniProt P36544)
assay.endpoint: pKi
One number for each entry, as −log10 of the molar value.

Recall and state the measured pKi for Cc1ccc(-c2ccc(OC3CN4CCC3CC4)cn2)cc1 (stereo not shown) [AQW051] .
6.59
